Give measured cytotoxicity at 10 µM for each item. Keep answers brief.
ASSAY_PROCEDURE: Toxicity liver stage against HepG2, at 10uM
Type: cell-based
Parameters: test concentration 10 uM, cell line HepG2-A16-CD81EGFP
EXPERIMENTAL_CONTEXT: human, HepG2-A16-CD81EGFP cells; read-out: INHIBITION
Numbers only; they are read as %.

Query: Quick check: cytotoxicity at 10 µM of `CC(C)(C)n1cc(C(=O)N2CCN(Cc3ccco3)CC2)cn1` ?
Reply: -7.36

Query: Queued: `COc1ncc(-c2nccn2-c2ccccc2CN2CCOCC2)cn1`
Reply: 3.31

Query: Queued: CC(=O)NCC1CCC2(CCN(c3ncc(C(C)=O)c(C)n3)CC2)O1 (configuration not stated)
Reply: -0.611

Query: Queued: `COCc1noc(CCNc2ncnc3c2CCNCC3)n1`
Reply: -5.59

Query: Queued: Cc1noc(CCCC(=O)N2CSCC2C(=O)NCC2CC2)n1 (configuration not stated)
Reply: -44.9

Query: Queued: NC1CCC(n2cc(C(=O)N[C@H]3CCCc4ccccc43)nn2)CC1 (some centres not stated)
Reply: -5.71

Query: Queued: COCCN(C)C1COC2(CCN(Cc3cccc(F)c3)CC2)C1 (configuration not stated)
Reply: -79.3

Query: Queued: c1cnnc(N2CCCC(NCc3cccc4c3OCO4)C2)c1 (configuration not stated)
Reply: 2.97

Query: Queued: `Cc1nn(C)c(C)c1S(=O)(=O)N1CC[C@@H]2O[C@@H](C)C[C@H]2C1`
Reply: 7.15

Query: Queued: CN1Cc2ccccc2NC(=O)C12CCNC2 (configuration not stated)
Reply: 6.75

Query: Queued: `COc1ncccc1CN1C[C@@H]2COC[C@]2(CNS(C)(=O)=O)C1`
Reply: 8.01

Query: Queued: `CC(C)CCC(=O)N1CCN(C(=O)c2ccc(-n3cccn3)cc2)CC1`
Reply: 4.28

Query: Queued: CC(C)c1nn(C)c(N(C)C)c1CNCC(O)c1ccccc1 (configuration not stated)
Reply: -1.83

Query: Queued: `O=c1[nH]c(NC2CCCC2)nc2nccc(-c3ccco3)c12`
Reply: 0.74

Query: Queued: CCCNCC1(O)CCCN(Cc2cccc(C)c2)C1=O (configuration not stated)
Reply: -19.7

Query: Queued: `c1ccc(COC[C@]23COC[C@H]2CN(c2ncccn2)C3)nc1`
Reply: 2.14

Query: Queued: `Cc1cc(N2CCC(NS(C)(=O)=O)CC2)nc(C(C)C)n1`
Reply: -3.36

Query: Queued: CCN(C)S(=O)(=O)N1CCCC(c2cccc(C(=O)O)c2)C1 (configuration not stated)
Reply: 0.91

Query: Queued: `O=C(COC1CCCCC1)Nc1ccn(Cc2cccnc2)n1`
Reply: 5.17

Query: Queued: `O=C(Cn1ncc(N2CCNCC2)cc1=O)NCCc1ccc(F)cc1`
Reply: 0.342

Query: Queued: O=C(c1cc(Cl)c[nH]1)N1CCCC(c2cc(C(F)(F)F)[nH]n2)C1 (configuration not stated)
Reply: 18

Query: Queued: `Cc1cc(C)c2c(N3CCCN(C(=O)C4CCC4)CC3)ncnc2n1`
Reply: -10.7

Query: Queued: `C[C@@H]1CN(S(=O)(=O)c2ccc(F)cc2Cl)C[C@]1(C)O`
Reply: -2.83

Query: Queued: `Cc1nc(S(=O)(=O)NCCC(=O)NCc2ccsc2)cn1C`
Reply: 3.68

Query: Queued: `Cc1cccnc1CN1CCN(C(=O)CCn2ccc(=O)[nH]c2=O)CC1`
Reply: 1.99

Query: Queued: `Cc1nncn1CCNC(=O)C(C)(C)c1cccc(Cl)c1`
Reply: 8.55

Query: Queued: `CCC[C@@H]1CN(C(=O)CCc2ccco2)C[C@H]1NS(C)(=O)=O`
Reply: -3.73

Query: Queued: `Cc1cc(-n2cncn2)ccc1C(=O)N(CC(F)(F)F)C(C)C`
Reply: -3.72

Query: Queued: Cc1nc(CCNC(=O)NC(C)Cn2cccn2)cs1 (configuration not stated)
Reply: -1.85

Query: Queued: `CCc1cnc(N)nc1NCCn1cc(Cl)cn1`
Reply: 1.5

Query: Queued: `Cc1ccccc1CNC(=O)N1C[C@@H]2C[C@H](C(=O)N(C)C)[C@H](C1)O2`
Reply: 5.44

Query: Queued: c1ccn2c(C3CCCN(c4ncnc5c4CCNC5)C3)nnc2c1 (configuration not stated)
Reply: -7.94

Query: Queued: CC(NC(=O)NCCCN(C)S(C)(=O)=O)c1cccnc1 (configuration not stated)
Reply: -12.5

Query: Queued: Cc1ccsc1C(=O)NC(C)c1ccc2c(c1)CCC(=O)N2 (configuration not stated)
Reply: -12.4

Query: Queued: CNS(=O)(=O)CC1CCCN1C(=O)c1cccc(Cl)c1 (configuration not stated)
Reply: -1.5

Query: Queued: COC1COC2(CCN(C(=O)c3ccccc3F)CC2)C1 (configuration not stated)
Reply: -92.4

Query: Queued: `Cc1ccc(N2C[C@H](O)[C@@H](N3CCN(c4ccccn4)CC3)C2)nn1`
Reply: -0.442

Query: Queued: c1csc(-c2noc(CCCN3CCCC3Cn3cccn3)n2)c1 (configuration not stated)
Reply: -7.47

Query: Queued: `c1ccc2c(Cc3nnc([C@H]4CCN(C5CCCCC5)C4)o3)c[nH]c2c1`
Reply: -0.00726

Query: Queued: c1ncn(CC2CN(Cc3noc(C4CC4)n3)CCO2)n1 (configuration not stated)
Reply: 1.59

Query: Queued: `CCn1ccnc1CN1CCCN(C(=O)Cc2csc(C)n2)CC1`
Reply: -2.12

Query: Queued: CNc1cnc(CC2COCCN(Cc3cccc(C)n3)C2)cn1 (configuration not stated)
Reply: 8

Query: Queued: `c1ccc(-c2ncn(CCCN3CCOCC3)c2-c2ccncc2)cc1`
Reply: -7.64

Query: Queued: CC(C)(C)C(O)CN1CCN(CCOCC(F)(F)F)CC1 (configuration not stated)
Reply: -2.02

Query: Queued: O=C(C1CC=CC1)N1Cc2nccn2CC(CN2CCCC2)C1 (configuration not stated)
Reply: -86.5

Query: Queued: `CCOc1ncccc1CNC(=O)CN1CCCCCC1=O`
Reply: 2.92

Query: Queued: CNS(=O)(=O)c1ccc(C(=O)N2CCCC2c2ccccc2C)o1 (configuration not stated)
Reply: -6.23

* * *

ASSAY_PROCEDURE: Toxicity liver stage against HepG2, at 10uM
Type: cell-based
Parameters: test concentration 10 uM, cell line HepG2-A16-CD81EGFP
EXPERIMENTAL_CONTEXT: human, HepG2-A16-CD81EGFP cells; read-out: INHIBITION
OBSERVED_PROPERTY: cytotoxicity at 10 µM (%)
Numbers only; they are read as %.

Query: Quick check: cytotoxicity at 10 µM of CCn1ncnc1C(C)Nc1cc(C2CC2)ncn1 (centres undefined) ?
Reply: 2.33

Query: Queued: `Cc1cnc(N2CCc3ncnc(N4CCN(C)CC4)c3CC2)nc1`
Reply: -1.73

Query: Queued: CCN1CCC(CNS(=O)(=O)N2CCc3ccccc3C2)C1 (centres undefined)
Reply: -15.4

Query: Queued: `Cc1noc([C@@H]2CC[C@@H]3[C@@H](CCN3S(=O)(=O)C3CC3)O2)n1`
Reply: -11.6

Query: Queued: `CC(=O)N1CCC2(CC1)CC(C(C)C)=NO2`
Reply: 8.74

Query: Queued: Cc1ccc(CN2CCN(c3ncccc3Cl)CC2CCO)cc1 (centres undefined)
Reply: -1.04

Query: Queued: `Cn1ccc(-c2cc(C(=O)N3CCOCC3)c3ccccn23)n1`
Reply: 7.9

Query: Queued: Cc1ccc(N2CCCC(N3CCN(CC(F)F)CC3)C2=O)cc1 (centres undefined)
Reply: 1.66

Query: Queued: CCC(=O)N1CCC(NC2CCSCC2)C1 (centres undefined)
Reply: 2.85

Query: Queued: COCCN1CCC(CNC(=O)C2(c3ccccc3)CCC2)C1 (centres undefined)
Reply: -5.36

Query: Queued: `O=C(NCc1ccco1)[C@@H]1C[C@H]2OCC[C@H]2N(c2ncc(F)cn2)C1`
Reply: -0.113

Query: Queued: O=C(COc1ccc(F)cc1)N1CCCSCC1CN1CCOCC1 (centres undefined)
Reply: -0.0603

Query: Queued: `NC(=O)N1CC[C@H](O)[C@@H]1Cc1cccnc1`
Reply: 1.72

Query: Queued: `COc1ccc(CNC(=O)c2ccoc2CN2CCNC(=O)C2)cc1`
Reply: 6.41

Query: Queued: CCC(CO)N(Cc1ccccn1)Cc1ccc(-c2ccn[nH]2)s1 (centres undefined)
Reply: 2.66

Query: Queued: `Cc1csc(N2CCCN(C(=O)c3ccoc3C)CC2)n1`
Reply: -8.45

Query: Queued: `O=C(NCCO)c1ccn(-c2ccc3ccccn23)n1`
Reply: -8.21

Query: Queued: `CCOCC(=O)N1C[C@@H]2COC[C@H](c3nc(C)no3)[C@@H]2C1`
Reply: -11.1

Query: Queued: `Cc1ccc(CN2C[C@@H]3CCCO[C@@H]3[C@H](NC(=O)CC3CC3)C2)s1`
Reply: 19.9

Query: Queued: c1ccc(C2CCCN(c3ncnc4c3CCNC4)CC2)cc1 (centres undefined)
Reply: 58.5

Query: Queued: O=C1NCC2(CCCN(Cc3cccnc3)C2)Oc2ccccc21 (centres undefined)
Reply: -24.1

Query: Queued: `CC(C)Oc1ccc(CNC(=O)CN(C)S(C)(=O)=O)cc1F`
Reply: -3.1

Query: Queued: `CCn1[nH]c(C)c2c(C(F)(F)F)cc(=O)nc1-2`
Reply: -1.26

Query: Queued: `Cc1ccccc1C(=O)NC[C@@H]1CCN(C(=O)CN2CCCC2)C[C@H]1O`
Reply: -39.8
